Reference for the values: ChEMBL document CHEMBL3433997

Listed here: items and their measured inhibition.
# targetDesc: Glucose transporter (Leishmania mexicana) (UniProt O61059)
# assayProcedure: ST_JUDE_LEISH: Cytotoxicity at 2uM final concentration against transgenic Leishmania Mexicana promastigotes LmGT2 that are glucose transport deficient and complemented with the L. Mexicana glucose transporter 2. Activity is measured by DNA content using SYBR green in vitro
# Assay type: functional
reportedEndpoint: inhibition (%)

• Cc1[nH]c(C)c(-c2ccc(Oc3ccc(Cl)cc3)cc2)c(=O)c1Br = -0.13
• CN(C)Cc1ccc(-c2ccc3c(Nc4ccc(Oc5ccccn5)cc4)ccnc3c2)o1 = 2.19
• COc1cc2c(Nc3ccc(NC(=O)c4ccccc4)cc3)ncnc2cc1OCCCN1CCOCC1 = 4.08
• NCC1CCCN1Cc1ccc(-c2ccc(-c3nc4ccccc4[nH]3)s2)cc1 (centres undefined) = -0.41
• O=C(NCCCCN1CCC(c2cccc3ccccc23)CC1)c1ccc(NC(=O)c2ccc(Cl)cc2)cc1 = 0.68
• COc1ccc(C(C(=O)NC2CCN(C[C@H](O)c3ccnc4ccc(OC)cc34)CC2)N2CCN(c3ccc([N+](=O)[O-])cc3)CC2)cc1 (some centres undefined) = 2.85
• N=C1N=C(N)NCN1OCc1ccc(Cl)c(Cl)c1 = -0.31
• Cc1cc(N2CCCC2)nc(Nc2ccc(NC(=O)C3CCCC3)cc2)n1 = 0.83
• CCn1cc(CN2CCCC(C(=O)Nc3ccc(-c4nc5ccccc5[nH]4)cc3)C2)c(C)n1 (centres undefined) = 3.25

* * *

# targetDesc: Glucose transporter (Leishmania mexicana) (UniProt O61059)
# assayProcedure: ST_JUDE_LEISH: Cytotoxicity at 2uM final concentration against transgenic Leishmania Mexicana promastigotes LmGT2 that are glucose transport deficient and complemented with the L. Mexicana glucose transporter 2. Activity is measured by DNA content using SYBR green in vitro
# Format: functional
# reported inhibition; entries follow
reportedEndpoint: inhibition

- COc1cc2nc(N3CCN(C(=O)c4ccc(N(C(=O)OC(C)(C)C)C(=O)OC(C)(C)C)cc4)CC3)nc(N)c2cc1OC: 0.52%
- Cc1cccc2nc(-c3ccc(-c4cccc(NC(=O)c5cnccc5C(F)(F)F)c4)cc3)[nH]c12: 8.19%
- COc1ccc(CC(=O)Nc2ccc(-c3cccc(-c4nc5cccc(C)c5[nH]4)c3)cc2)cc1O: 5.34%
- O=c1cc(NCCCNCc2cccc(OC(F)(F)F)c2)[nH]c2ccccc12: 4.57%
- O=C(NCCc1cccc(Cl)c1Cl)c1ccc(N2CCN(c3ccncc3)CC2)nc1: 21.8%
- Fc1ccc(-c2csc3ncnc(Cl)c23)cc1: -2.14%
- O=C(NC1CCC(CCN2CCc3ccc(-c4cnccn4)cc3CC2)CC1)c1cccc(-n2cccn2)c1 (centres undefined): 8.56%
- CCOc1ccc(C(C)NC(=O)C2COc3ccccc3O2)cc1OCC (centres undefined): 2.93%
- COc1ccc(Cl)cc1N1CCN(CCCNC(=O)c2ccc(-c3nc4cc(Cl)c(C)cc4[nH]3)c(F)c2)CC1: 0.07%

* * *

# targetDesc: Glucose transporter (Leishmania mexicana)
# assayProcedure: ST_JUDE_LEISH: Cytotoxicity at 2uM final concentration against transgenic Leishmania Mexicana promastigotes LmGT2 that are glucose transport deficient and complemented with the L. Mexicana glucose transporter 2. Activity is measured by DNA content using SYBR green in vitro
# Assay type: functional
reportedEndpoint: inhibition (%)

- CNC(=O)c1cc(S(=O)(=O)N2CCN(c3ccccn3)CC2)c(C)s1: 1.44
- COc1ccc(CN2CCC(CN3CC4(OC3=O)c3ccccc3-c3ccccc34)C2)c(O)c1 (stereo not given): 11
- O=C(NCCNc1nc(NCCNC(=O)Nc2ccccc2)c2ccc(=O)n(-c3c(F)cccc3F)c2n1)Nc1ccccc1: -0.37
- COc1ccc2c(NN=Cc3ccccc3Cl)ccnc2c1: 4.32
- Cc1cc(N[C@@H](CC(C)C)C(=O)Nc2ccccc2)nc(NCc2ccccc2C)n1: 5.01

* * *

# targetDesc: Solute carrier family 2, facilitated glucose transporter member 1 (Homo sapiens) (UniProt P11166)
# Sequence (P11166 whole entry): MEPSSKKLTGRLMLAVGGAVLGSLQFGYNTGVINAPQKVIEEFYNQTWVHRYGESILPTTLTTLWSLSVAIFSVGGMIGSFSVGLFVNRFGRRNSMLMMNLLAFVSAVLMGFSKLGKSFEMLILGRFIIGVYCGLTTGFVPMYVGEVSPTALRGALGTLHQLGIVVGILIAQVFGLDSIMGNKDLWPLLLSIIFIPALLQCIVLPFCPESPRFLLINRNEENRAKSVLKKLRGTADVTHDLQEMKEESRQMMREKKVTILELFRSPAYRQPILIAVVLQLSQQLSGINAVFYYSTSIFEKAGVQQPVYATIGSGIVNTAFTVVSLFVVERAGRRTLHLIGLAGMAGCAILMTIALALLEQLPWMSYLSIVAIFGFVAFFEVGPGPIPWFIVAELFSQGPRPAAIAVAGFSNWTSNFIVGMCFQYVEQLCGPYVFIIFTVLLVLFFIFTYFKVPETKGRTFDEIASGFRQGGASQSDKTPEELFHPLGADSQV
# assayProcedure: ST_JUDE_LEISH: Cytotoxicity at 2uM final concentration against transgenic Leishmania Mexicana promastigotes LmGLUT1 that are glucose transport deficient and complemented with the human glucose transporter GLUT1. Activity is measured by DNA content using SYBR green in vitro
# Format: functional
reportedEndpoint: inhibition (%)

* COc1ccccc1-c1nc2nc(N)nc(N)c2nc1-c1ccccc1OC | 0.82
* O=C(NC1CCN(CCN2CCC(c3ccccc3C(F)(F)F)CC2)CC1)c1ccc(-c2ccc(Cl)cc2)cc1 | 9.46
* Nc1cc(/C=C/c2ccc([N+](=O)[O-])s2)nc2ccccc12 | 16.4
* Cc1ccc(O)c(Nc2c3c(c(C#N)c4nc5ccccc5n24)CCC3)c1 | 2.48
* O=C(Nc1ccc2nc3n(c(=O)c2c1)CCCCC3)C(=O)N1CCC(Cc2ccccc2)CC1 | -0.67
* CCCCCCCCOc1c(OCC)cc(Cc2cnc(N)nc2N)cc1OCC | 13.7
* COc1cccc(OC)c1CN1CCC(N(C)CCCCCCCCN2CCC(OC(=O)Nc3ccccc3-c3ccccc3)CC2)CC1 | 105
* O=C(Nc1cccc(-c2csc(-c3ccccc3)n2)c1)c1cccs1 | 2.64
* N#Cc1ccc(N2C[C@@H](OCc3ccccc3)C[C@H]2C(=O)NCCC(c2ccccc2)c2ccccc2)c2ccccc12 | 5.42

* * *

Let's look at some compounds and their measured inhibition.
# targetDesc: Solute carrier family 2, facilitated glucose transporter member 1 (Homo sapiens) (UniProt P11166)
# assayProcedure: ST_JUDE_LEISH: Cytotoxicity at 2uM final concentration against transgenic Leishmania Mexicana promastigotes LmGLUT1 that are glucose transport deficient and complemented with the human glucose transporter GLUT1. Activity is measured by DNA content using SYBR green in vitro
# Format: functional
reportedEndpoint: inhibition (%)

- COc1ccc(Cl)cc1N1CCN(CCCNC(=O)c2ccc(-c3nc4cnccc4[nH]3)c(Br)c2)CC1: 0.19
- COc1cccc(C(=O)NC(NC(=S)Nc2ccc(OC)cc2[N+](=O)[O-])C(Cl)(Cl)Cl)c1 (centres undefined): -1.36
- CCNc1cc(C(=O)N[C@@H](Cc2ccccc2)[C@H](O)CN[C@@H]2CCc3ccccc32)cc(N2CCCCS2(=O)=O)c1: 1.06
- C=CCOc1cccc2c1CCN(CCN1CCC(NC(=O)c3ccc(-c4ccc(Cl)cc4)cc3)CC1)C2: 17.2
- COc1ccc(Br)cc1/C=C/C(=O)Nc1ccc2c(c1)CCCN(C)C2: 0.84
- COc1ccc2nccc([C@@H](O)CN3CCC(NCc4cc5c(Cl)cccc5[nH]4)CC3)c2c1: 10.6
- O=C(Nc1ccc(Cl)cc1)c1cccc(CN2CCCN(Cc3cccc(O)c3)CC2)c1: -0.2
- COc1cc(C(=O)Nc2ccc3nc(N4CCN(C)CC4)cc(C)c3c2)cc(OC)c1OC: 1.09
- CC1CC(C)CN(CC(O)CNC(=O)Nc2ccc(Br)cc2)C1 (centres undefined): 6.62
- Cc1ccc2nc(C)n(C3CCN(C(=O)C4(c5ccccc5)CC4)CC3)c2c1: 5.47
- FC(F)(F)Oc1ccc(-c2cnc3ccc(NCc4ccncc4)nn23)cc1: 2.41
- Cn1c(-c2ccccc2)cc2c3c(=O)cc(C(F)(F)F)[nH]c3ccc21: 13.8
- Cn1cncc1C(=O)Nc1cccc(-c2ccc(-c3nc4cc(F)ccc4[nH]3)cc2)c1: 0
- CC(C)CCN1CCCN(Cc2ccc(C(=O)Nc3ccc(Cl)cc3)cc2)CC1: 11.1
- Cc1ccc(CNC(=O)[C@H](Cc2ccccc2)Nc2cc(C)nc(NCC3CCCCC3)n2)cc1: 3.25
- Cc1noc(-c2ccc3c(c2)CCN(CCC2CCC(NC(=O)c4cc5ccccc5[nH]4)CC2)CC3)n1 (centres undefined): 2.93
- CC12CCC(C(=O)N(CC(O)Cn3c4ccc(Cl)cc4c4cc(Cl)ccc43)C1=O)C2(C)C (centres undefined): 2.14
- O=C1C(=Cc2c(O)ccc3ccccc23)SC(=NCc2ccccc2)N1Cc1ccccc1: 3.93
- COc1cc(Nc2nccn3c(-c4ccsc4)cnc23)cc(OC)c1OC: 7.63

* * *

# targetDesc: Hexose transporter 1 (Plasmodium falciparum)
# assayProcedure: ST_JUDE_LEISH: Cytotoxicity at 2uM final concentration against transgenic Leishmania Mexicana promastigotes LmPfHT that are glucose transport deficient and complemented with the Plasmodium falciparum hexose transporter. Activity is measured by DNA content using SYBR green in vitro
# Type: functional
Below, each entry is listed alongside its reported inhibition.
reportedEndpoint: inhibition (%)

- CN(C)c1ccc(CN2CCC(CNC(=O)c3cc(-c4ccccc4Cl)cs3)C2)cc1 (centres undefined): -3.68
- CCN(CC)CCN(CCCc1ccc(-c2ccc(C(F)(F)F)cc2)cc1)C(=O)Cn1c(CCc2cccc(F)c2F)nc(=O)c2ccccc21: 2.91
- c1ccc2c(CNCCCCCCNCc3c(OCC4CC4)ccc4ccccc34)c(OCC3CC3)ccc2c1: 69.8
- O=C(/C=C/c1ccc(Cl)c(Cl)c1)NCCCCCN1CCCC(CNC(=O)c2sc3ccccc3c2Cl)C1 (centres undefined): -2.38
